# credit: paper PMC12421817

Readout kind: pKd
Worth noting: pKd values are minus log10 of concentrations stated in mol/L.

GET pKd | system: NadR (Salmonella enterica) | item: Nc1nc2c(ncn2[C@@H]2O[C@@H]3COP(=O)(O)O[C@H]4[C@@H](O)[C@H](n5cnc6c(=O)[nH]c(N)nc65)O[C@@H]4COP(=O)(O)O[C@H]3[C@H]2O)c(=O)[nH]1
6.80
